# Measured target: UniProtKB P19438
# Sequence (P19438 30-211 limits assumed): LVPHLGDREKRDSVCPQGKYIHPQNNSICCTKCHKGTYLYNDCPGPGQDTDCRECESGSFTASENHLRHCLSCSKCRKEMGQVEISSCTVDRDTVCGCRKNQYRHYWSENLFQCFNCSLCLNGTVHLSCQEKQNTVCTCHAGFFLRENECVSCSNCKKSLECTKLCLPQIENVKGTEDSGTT
# Experiment notes: SPR binding assay on immobilized TNFR1 ECD
Parameter measured: Kd (µM)
Write the answer as a number in µM, unit excluded.

Entry COc1cc(C(=O)NS(=O)(=O)c2ccccc2C)ccc1Cc1cn(C)c2ccc(NC(=O)OC3CCCC3)cc12 has what Kd?
86

Measured values drawn from paper PMC7008598 for this set.
